Listing of entries alongside the reported log10 of IC50.
- Target or system: WRN C727 (Homo sapiens)
- Construct: endogenous in cells; host or cells: OCI-AML2
- Sequence (Q14191 whole entry): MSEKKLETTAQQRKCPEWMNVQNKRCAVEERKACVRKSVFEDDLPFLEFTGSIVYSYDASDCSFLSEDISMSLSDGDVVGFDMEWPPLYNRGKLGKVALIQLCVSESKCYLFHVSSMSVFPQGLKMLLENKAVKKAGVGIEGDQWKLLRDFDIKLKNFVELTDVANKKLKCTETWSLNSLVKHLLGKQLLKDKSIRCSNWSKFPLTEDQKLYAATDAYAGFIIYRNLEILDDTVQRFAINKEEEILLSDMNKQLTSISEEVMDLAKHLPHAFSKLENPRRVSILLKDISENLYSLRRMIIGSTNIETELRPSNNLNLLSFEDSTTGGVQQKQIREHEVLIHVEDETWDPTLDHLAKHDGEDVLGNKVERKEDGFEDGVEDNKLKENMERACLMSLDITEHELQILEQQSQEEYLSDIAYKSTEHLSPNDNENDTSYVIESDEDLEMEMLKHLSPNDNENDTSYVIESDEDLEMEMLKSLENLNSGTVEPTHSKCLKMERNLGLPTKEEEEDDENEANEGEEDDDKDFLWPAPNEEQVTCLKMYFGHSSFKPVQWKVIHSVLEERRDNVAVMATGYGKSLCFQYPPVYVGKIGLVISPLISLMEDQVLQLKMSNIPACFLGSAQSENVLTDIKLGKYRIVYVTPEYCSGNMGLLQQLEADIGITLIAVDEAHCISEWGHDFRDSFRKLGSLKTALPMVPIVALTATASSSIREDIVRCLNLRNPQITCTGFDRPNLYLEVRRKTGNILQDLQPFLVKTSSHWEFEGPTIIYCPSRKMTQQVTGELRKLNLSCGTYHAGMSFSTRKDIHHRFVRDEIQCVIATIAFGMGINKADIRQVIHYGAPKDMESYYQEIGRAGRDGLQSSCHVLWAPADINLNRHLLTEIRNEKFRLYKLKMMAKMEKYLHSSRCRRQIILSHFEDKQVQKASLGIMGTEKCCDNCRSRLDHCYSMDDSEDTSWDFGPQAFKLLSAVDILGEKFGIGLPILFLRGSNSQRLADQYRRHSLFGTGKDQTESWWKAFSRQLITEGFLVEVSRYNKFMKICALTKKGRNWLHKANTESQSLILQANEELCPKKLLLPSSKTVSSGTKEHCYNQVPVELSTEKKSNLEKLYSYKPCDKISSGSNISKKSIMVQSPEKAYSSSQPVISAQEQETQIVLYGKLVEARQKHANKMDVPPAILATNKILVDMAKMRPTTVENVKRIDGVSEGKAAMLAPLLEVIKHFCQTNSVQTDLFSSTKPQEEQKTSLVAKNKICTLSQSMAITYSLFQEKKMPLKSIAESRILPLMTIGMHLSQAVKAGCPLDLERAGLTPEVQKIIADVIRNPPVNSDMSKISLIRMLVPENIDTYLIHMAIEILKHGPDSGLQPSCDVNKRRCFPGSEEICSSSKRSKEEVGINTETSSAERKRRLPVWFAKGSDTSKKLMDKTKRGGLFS
- Procedure text: Target engagement, in vitro (lysate), OCI-AML2
- Assay type: binding
- Condition label: read-out: OCI-AML2 WRN C727 TE50 in vitro (lysate)
Measured attribute: log10 of IC50 (log10 of the value in µM)

[
  {
    "Compound": "CC[C@@H](/C=C/S(C)(=O)=O)NC(=O)c1cnc(C2CCCC2)nc1Oc1ccccc1 [Example 6]",
    "log10 of IC50": 0.70
  },
  {
    "Compound": "CC(C)(C)c1ncc(C(=O)N[C@H](/C=C/S(C)(=O)=O)C2CCC(F)(F)CC2)c(Oc2ccccc2)n1 [Example 72]",
    "log10 of IC50": -0.22
  },
  {
    "Compound": "Cc1ccc(Oc2nc(C3CCCC3)ncc2C(=O)NC/C=C/S(C)(=O)=O)cc1 [Example 104]",
    "log10 of IC50": 1.34
  },
  {
    "Compound": "C[C@@H](/C=C/S(C)(=O)=O)NC(=O)c1cnc(C2CC2)nc1Oc1ccccc1 [Example 18]",
    "log10 of IC50": 0.84
  },
  {
    "Compound": "CS(=O)(=O)/C=C/[C@@H](NC(=O)c1cnc(N2CCC2)nc1Oc1ccccc1)C1CC1 [Example 181]",
    "log10 of IC50": 1.43
  },
  {
    "Compound": "C[C@@H](/C=C/S(C)(=O)=O)NC(=O)c1cnc(C2CC(F)(F)C2)nc1Oc1ccccc1 [Example 103]",
    "log10 of IC50": 0.54
  }
]
